Cited source: the supplement of paper PMC8671470

- System: myeloid leukemia patient primary cells Pat.14
- protocol: cell viability (% survival relative to DMSO control); higher = less cytotoxic
- settings: 100 nM; 72 h
This section presents molecules with their documented cell viability values.
Report the figure in % without appending any unit label.

Observe how each entry below is paired with its result.
smiles str	output unit	cell viability
C=C(C)[C@H]1Cc2c(ccc3c2O[C@@H]2COc4cc(OC)c(OC)cc4[C@@H]2C3=O)O1	%	50
N#CC(C#N)=NNc1ccc(OC(F)(F)F)cc1	%	94.6
O=C(C1CC1)N1CC[C@@H](C=C2NNC(=O)N2c2ccc(-c3ccc4occc4c3)cc2)C1	%	96.2

// query Query the reported cell viability for myeloid leukemia patient primary cells Pat.14; item: Nc1nc(Cl)nc2c1ncn2[C@H]1C[C@H](O)[C@@H](CO)O1
// result 17.3

// query Query the reported cell viability for myeloid leukemia patient primary cells Pat.14; item: O=C1c2cc([N+](=O)[O-])ccc2-n2c1nc1ccccc1c2=O
// result 96.8

// query Query the reported cell viability for myeloid leukemia patient primary cells Pat.14; item: Cc1c(-c2ccc(-c3ccccc3F)cc2)nc2ccc(F)cc2c1C(=O)O
// result 73.4

// query Query the reported cell viability for myeloid leukemia patient primary cells Pat.14; item: CC[C@@]1(O)C(=O)OCc2c1cc1n(c2=O)Cc2cc3c(CN(C)C)c(O)ccc3nc2-1
// result 72.4
